Readings of activation at 10 µM for the listed molecules
target: Full-length glucokinase (beta cell isoform) (Homo sapiens, UniProt P35557); construct: Full-length glucokinase (beta cell isoform) was His-tagged at N-terminus; His tag (N); made in house; experiment: Glucokinase biochemical assay (PK/LDH-coupled, NADH depletion at 340 nm): % activation, EC50, % max activation; conditions: 10 uM compound; 5 mM glucose; % Activation=(Va/Vo−1)×100; read-out: % Activation at 10 uM
Sequence (P35557 whole entry, species assumed, canonical isoform): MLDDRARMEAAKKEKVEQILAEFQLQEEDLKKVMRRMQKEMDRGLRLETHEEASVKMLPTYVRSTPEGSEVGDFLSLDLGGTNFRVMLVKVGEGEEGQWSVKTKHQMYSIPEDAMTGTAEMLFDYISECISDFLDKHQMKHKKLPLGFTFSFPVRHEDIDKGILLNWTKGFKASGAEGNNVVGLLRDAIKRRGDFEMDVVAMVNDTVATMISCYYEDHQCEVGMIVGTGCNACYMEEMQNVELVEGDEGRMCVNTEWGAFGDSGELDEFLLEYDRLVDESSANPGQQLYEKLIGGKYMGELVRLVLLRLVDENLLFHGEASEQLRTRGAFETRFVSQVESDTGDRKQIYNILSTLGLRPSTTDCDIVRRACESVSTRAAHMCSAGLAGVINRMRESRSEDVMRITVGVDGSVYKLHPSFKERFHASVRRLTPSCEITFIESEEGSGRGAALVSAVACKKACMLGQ

{"columns": ["Molecule", "activation at 10 µM [%]"],
 "data": [
  ["Cc1cc2c(Oc3ccc(S(C)(=O)=O)cc3)cc(C(=O)Nc3ccccn3)cc2o1 [Example 257]", 111],
  ["Cc1ccc(NC(=O)c2cc(Oc3ccc(S(C)(=O)=O)cc3)c3cc(C(F)F)oc3c2)nc1 [Example 321]", 100],
  ["CN(C)S(=O)(=O)c1ccc(Oc2cc(C(=O)Nc3ccn(C)n3)cc3c2CC(C)(C)O3)cc1 [Example 122]", 184],
  ["C[C@@H](Cc1ccccc1)Oc1cc(C(=O)Nc2ccn(C)n2)cc2c1CC(C)(C)O2 [Example 78]", 139],
  ["Cc1ccc(NC(=O)c2cc(Oc3ccc(S(C)(=O)=O)cn3)c3cc(C)oc3c2)nc1 [Example 281]", 92.7],
  ["Cc1csc2cc(C(=O)Nc3ccn(C)n3)cc(O[C@@H](C)Cc3ccccc3)c12 [Example 354]", 3.5],
  ["Cn1ccc(NC(=O)c2cc(Oc3ccc(C(=O)N4CCC4)c(F)c3)cc3c2CC(C)(C)O3)n1 [Example 197]", 77.6],
  ["Cc1nc(COc2cc(C(=O)Nc3ccn(C)n3)cc3c2CC(C)(C)O3)no1 [Example 96]", 107],
  ["CN(CC#N)C(=O)c1ccc(Oc2cc(C(=O)Nc3ccn(C)n3)cc3c2CC(C)(C)O3)cc1F [Example 67]", 131],
  ["CC(C)Oc1cc(C(=O)Nc2ccn(C)n2)cc2c1CC(Cc1ccccc1)O2 (stereo not shown) [Example 221]", 8.4],
  ["CN(C)C(=O)c1ccc(Oc2cc(C(=O)Nc3ccon3)cc3c2CC(C)(C)O3)cc1 [Example 158]", 115],
  ["CC(Oc1cc(C(=O)Nc2ccn(C)n2)cc2c1CC(C)(C)O2)c1cnccn1 (stereo not shown) [Example 82]", 110],
  ["Cc1cc2c(Oc3ccc(C(=O)N(C)C)c(F)c3)cc(C(=O)Nc3ccn(C)n3)cc2o1 [Example 272]", 49.6],
  ["CO[C@H]1CCN(C(=O)c2ccc(Oc3cc(C(=O)Nc4ccn(C)n4)cc4c3CC(C)(C)O4)cc2F)C1 [Example 60]", 172],
  ["Cn1ccc(NC(=O)c2cc(Oc3ccc(S(C)(=O)=O)c(Cl)c3)c3c(c2)OC(C)(C)C3)n1 [Example 139]", 242],
  ["CN(C)C(=O)c1ccc(Oc2cc(C(=O)Nc3ccn(C)n3)cc3c2CC(C)(C)O3)cc1F [Example 54]", 83.3]
]}
